- System: PC-3
- Protocol Description: NCI tumour cell line growth inhibition, 48 h
Activity calls are given as the source filed them. Cut-off read from the data, not from the text of the source: active = GI50 up to about 1.1 µM and inactive = higher.
Could you please pick one outcome from this set? active, inactive

Below, 2 compounds whose answers are already recorded.
compound=O=C(O)c1nc2cc(C(F)(F)F)ccc2nc1Nc1ccc(Cl)c(Cl)c1 label_value=inactive
compound="CSc1cnc2ccccc2c1SC1CN(Cc2ccccc2)c2ccccc2C1=O (stereo not given)" label_value=inactive

Dear all, I need the recorded test outcome for CN(C)CCNc1ccc2nnn3c4ccc(Cl)cc4c(=O)c1c23 , thank you. inactive

Dear all, I need the recorded test outcome for CCCCCCN(CCCCCC)C(=S)N/N=C(\C)c1ccccn1 , thank you. active

----------
- Tested on: IGROV-1
- Protocol Description: NCI tumour cell line growth inhibition, 48 h
The source made the active and inactive calls. No stated cut-off is given here; in the data, active = GI50 up to about 1.1 µM and inactive = higher.
Could you please pick one outcome from this set? 1 (yes) for active, 0 (no) for inactive

Below, 10 compounds whose answers are already recorded.
compound=CCCCI(O)OS(=O)(=O)c1ccc(C)cc1 label_value="0 (no)"
compound=c1ccc2c(c1)[n-]n1c3ccc4nonc4c3n[n+]21 label_value="0 (no)"
compound="CC(O)C(NC(=O)c1ccccc1)C(=O)N(Cc1ccccc1)Cc1ccccc1 (stereo not drawn)" label_value="0 (no)"
compound=FC(F)(F)c1cc(Cl)cnc1N/N=C(/c1ccccc1)c1ccccn1 label_value="0 (no)"
compound=CCn1cc2c(=O)n3ncn(-c4ccc(Br)cc4)c3nc2n1 label_value="0 (no)"
compound=Cc1c(CCN=P(c2ccccc2)(c2ccccc2)c2ccccc2)c(=O)n2c([nH]c3ccccc32)c1C#N label_value="0 (no)"
compound=C/N=N/N(C)C(=O)NC label_value="0 (no)"
compound=COc1ccc(/C=C/c2cc(=O)cc(/C=C/c3ccc(OC)c(O)c3)o2)cc1O label_value="0 (no)"
compound=CCCN(CCC)c1c([N+](=O)[O-])cc(C(=O)N(C)C)cc1[N+](=O)[O-] label_value="0 (no)"
compound=CCOC(=O)c1c(N2CCCC2)nsc1Nc1ccccc1 label_value="0 (no)"

Dear all, I need the recorded test outcome for CCOC(=O)CCC(NC(=O)c1ccc(OCc2ccc3nc(-c4ccccc4)c(Cl)nc3c2)cc1)C(=O)OCC (stereo not drawn) , thank you. 0 (no)

Dear all, I need the recorded test outcome for CC(=O)OCC1OC(n2cc(F)c(=O)[nH]c2=O)C(N)C(OC(C)=O)C1OC(C)=O (stereo not drawn) , thank you. 0 (no)

Dear all, I need the recorded test outcome for CN(C)CS/C(N)=N\C(O)C(Cl)(Cl)Cl (stereo not drawn) , thank you. 0 (no)

Dear all, I need the recorded test outcome for COc1c(O)c(O)c2c(c1O)C(=O)c1cc(C)cc(O)c1C2=O , thank you. 0 (no)

Dear all, I need the recorded test outcome for OCc1ccn2c1[C@@H](O)CC2 , thank you. 0 (no)

Dear all, I need the recorded test outcome for Oc1c(-c2ccccc2)sc2ccccc12 , thank you. 0 (no)

----------
- Test system: OVCAR-4
- Protocol Description: NCI tumour cell line growth inhibition, 48 h
The source made the active and inactive calls. Rule as the data show it: active = GI50 up to about 1.1 µM and inactive = higher.
Could you please pick one outcome from this set? active, inactive

smiles_input=O=C(CCCNC(=O)OCc1ccccc1)OCc1ccc2c(c1)C(=O)c1ccccc1C2=O label_value=inactive
smiles_input=COc1ccc(OC)c(/C=N/N=C(\N)NO)c1 label_value=inactive

Dear all, I need the recorded test outcome for CC(=O)Oc1c2ccsc2c(OC(C)=O)c2ccsc12 , thank you. active

Dear all, I need the recorded test outcome for CO/N=C1/c2sccc2[C@H](NC(=O)CNC(=O)OC(C)(C)C)[C@@H]1O , thank you. inactive

Dear all, I need the recorded test outcome for CC(C)C[C@H](NC(=O)[C@H](Cc1cccc2ccccc12)NC(=O)N1CCOCC1)B(O)O , thank you. active
